biological target: MMP-2 (Gelatinase A) (Homo sapiens, UniProt P08253); assay: inhibition of MMP-2 hydrolysis of thiopeptolide substrate; format: biochemical; conditions: thiopeptolide substrate, pH 6.0, 22° C.; read-out: (IC50) MMP-2
Sequence (P08253 110-660): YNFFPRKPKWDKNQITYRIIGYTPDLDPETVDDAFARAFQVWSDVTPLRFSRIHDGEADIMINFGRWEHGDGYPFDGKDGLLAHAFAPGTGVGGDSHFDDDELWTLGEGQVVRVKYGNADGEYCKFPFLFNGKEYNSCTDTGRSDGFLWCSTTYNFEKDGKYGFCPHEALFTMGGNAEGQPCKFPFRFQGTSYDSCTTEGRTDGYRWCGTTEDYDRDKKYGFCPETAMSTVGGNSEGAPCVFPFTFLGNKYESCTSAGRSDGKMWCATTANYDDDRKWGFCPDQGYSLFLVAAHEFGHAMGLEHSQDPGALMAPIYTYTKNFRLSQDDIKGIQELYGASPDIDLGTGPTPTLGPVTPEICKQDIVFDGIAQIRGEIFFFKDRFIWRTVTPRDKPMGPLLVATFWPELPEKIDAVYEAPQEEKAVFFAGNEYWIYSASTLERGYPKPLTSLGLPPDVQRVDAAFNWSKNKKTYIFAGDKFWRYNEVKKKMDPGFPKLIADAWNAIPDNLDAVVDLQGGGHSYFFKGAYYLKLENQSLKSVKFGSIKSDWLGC
Catalogue of compounds with associated IC50
Readout Label: IC50

INSERT INTO measurements (compound, measured) VALUES
  ('CC(C)c1cccc(C(C)C)c1NC(=O)N[C@@H](CC(=O)c1ccc2oc3ccccc3c2c1)C(=O)O', '320 nM'),
  ('O=C(CC(NC(=O)c1c(F)c(F)c(F)c(F)c1F)C(=O)O)c1ccc2oc3ccccc3c2c1 (stereo not drawn)', '5200 nM'),
  ('CS(=O)(=O)N[C@@H](CC(=O)c1ccc2oc3ccccc3c2c1)C(=O)O', '280 nM'),
  ('O=C(CC(NC(=O)C(c1ccccc1)c1ccccc1)C(=O)O)c1ccc2oc3ccccc3c2c1 (stereo not drawn)', '100 nM'),
  ('O=C(CC(NC(=O)c1cccs1)C(=O)O)c1ccc2oc3ccccc3c2c1 (stereo not drawn)', '160 nM'),
  ('CCCCCCCCCCCC(=O)N[C@@H](CC(=O)c1ccc2oc3ccccc3c2c1)C(=O)O', '8800 nM'),
  ('O=C(COCc1ccccc1)NC(CC(=O)c1ccc2oc3ccccc3c2c1)C(=O)O (stereo not drawn)', '41 nM'),
  ('O=C(CC(NC(=O)C1CCCCC1)C(=O)O)c1ccc2oc3ccccc3c2c1 (stereo not drawn)', '150 nM'),
  ('CCC(C(=O)NC(CC(=O)c1ccc2oc3ccccc3c2c1)C(=O)O)c1ccccc1 (stereo not drawn)', '60 nM'),
  ('O=C(Cc1cccs1)NC(CC(=O)c1ccc2oc3ccccc3c2c1)C(=O)O (stereo not drawn)', '2500 nM'),
  ('O=C(CC(NC(=O)c1ccncc1)C(=O)O)c1ccc2oc3ccccc3c2c1 (stereo not drawn)', '3200 nM'),
  ('O=C(CC(NC(=O)c1ccc(Br)cc1)C(=O)O)c1ccc2oc3ccccc3c2c1 (stereo not drawn)', '180 nM'),
  ('Cc1ccc(S(=O)(=O)N[C@@H](CC(=O)c2ccc3oc4ccccc4c3c2)C(=O)O)cc1', '17 nM'),
  ('CC(Oc1ccccc1)C(=O)NC(CC(=O)c1ccc2oc3ccccc3c2c1)C(=O)O (stereo not drawn)', '35 nM'),
  ('O=C(C[C@H](NC(=O)C(F)(F)F)C(=O)O)c1ccc2c(c1)Cc1ccccc1-2', '12500 nM'),
  ('COc1ccc(C(=O)NC(CC(=O)c2ccc3oc4ccccc4c3c2)C(=O)O)cc1 (stereo not drawn)', '140 nM'),
  ('O=C(C[C@H](NC(=O)c1ccc(-c2ccccc2)cc1)C(=O)O)c1ccc2oc3ccccc3c2c1', '1640 nM'),
  ('Cc1nn(-c2ccccc2)nc1C(=O)NC(CC(=O)c1ccc2oc3ccccc3c2c1)C(=O)O (stereo not drawn)', '1800 nM');
